- assay-summary: Pharmacokinetics in rats
- Assay type: in vivo, rat
- experimental-context: male, Sprague-Dawley, rat, plasma, iv, i.v. 2.5 mg/kg
measure-name: half-life at 24 h
Form entry: enter the amount, then its unit.

Asked: Query: half-life at 24 h; subject: N#Cc1ccc(N[C@H]2CC[C@H](N(C(=O)NCc3ccccc3)c3ccc(N4CCN(C5CCN(c6cc7c(cc6F)C(=O)N(C6CCC(=O)NC6=O)C7=O)CC5)CC4)cc3)CC2)nc1 (stereo partly shown) [ZLC491]
Given back: 2.46 h

----------
- assay-summary: Pharmacokinetics in rats
- Format: in vivo, rat
- experimental-context: male, Sprague-Dawley, rat, plasma, oral bioavailability, p.o. 10 mg/kg vs i.v. 2.5 mg/kg
measure-name: bioavailability (%)
Record the value in %, omitting the unit from your answer.

Asked: Query: bioavailability; subject: N#Cc1ccc(N[C@H]2CC[C@H](N(C(=O)NCc3ccccc3)c3ccc(N4CCN(C5CCN(c6ccc7c(c6)C(=O)N(C6CCC(=O)NC6=O)C7=O)CC5)CC4)cc3)CC2)nc1 (stereo partly shown)
Given back: 16

----------
- assay-summary: Pharmacokinetics in rats
- Format: in vivo, rat
- experimental-context: male, Sprague-Dawley, rat, plasma, oral bioavailability, p.o. 10 mg/kg vs i.v. 2.5 mg/kg
Listed below: bioavailability at 24 h values for each entry.
Record the value in %, omitting the unit from your answer.

1. N#Cc1ccc(N[C@H]2CC[C@H](N(C(=O)NCc3ccccc3)c3ccc(N4CCN(C5CCN(c6ccc7c(c6)C(=O)N(C6CCC(=O)NC6=O)C7=O)CC5)CC4)cc3)CC2)nc1 (some centres unmarked)	16.5

Asked: Query: bioavailability at 24 h; subject: N#Cc1ccc(N[C@H]2CC[C@H](N(C(=O)NCc3ccccc3)c3ccc(N4CCN(C5CCN(c6cc7c(cc6F)C(=O)N(C6CCC(=O)NC6=O)C7=O)CC5)CC4)cc3)CC2)nc1 (some centres unmarked)
Given back: 46.8

----------
- assay-summary: Pharmacokinetics in rats
- Format: in vivo, rat
- experimental-context: male, Sprague-Dawley, rat, plasma, iv, i.v. 2.5 mg/kg
measure-name: clearance at 24 h
Form entry: enter the amount, then its unit.

Asked: Query: clearance at 24 h; subject: N#Cc1ccc(N[C@H]2CC[C@H](N(C(=O)NCc3ccccc3)c3ccc(N4CCN(C5CCN(c6cc7c(cc6F)C(=O)N(C6CCC(=O)NC6=O)C7=O)CC5)CC4)cc3)CC2)nc1 (stereo partly shown)
Given back: 6.38 mL/min/kg

----------
- System: CDK12/13
- assay-summary: Mechanism study: pretreatment before ZLC491, immunoblotting of CDK12/13 in MDA-MB-231 cells
- Format: cell-based, human
- experimental-context: 2 h pretreatment (1 μM MG132, 0.1 μM MLN4924, 0.1 μM bafilomycin, 5 μM pomalidomide, 8 μM compound 5), then 1 μM ZLC491 10 h
Where a SMILES comes first, the peptide text is derived from it. The star is where a group is joined. Cbz = O=C(OCc1ccccc1)*
measure-name: effect of pretreatment on ZLC491-induced CDK12/13 degradation

1. Nc1cccc2c1C(=O)N(C1CCC(=O)NC1=O)C2=O (stereo not shown) [pomalidomide]	reversed
2. CC(C)C[C@@H](C=O)NC(=O)[C@H](CC(C)C)NC(=O)[C@H](CC(C)C)NC(=O)OCc1ccccc1 [MG132] (Cbz-Leu-Leu-Leu-aldehyde)	significantly blocked
3. NS(=O)(=O)OC[C@@H]1C[C@@H](n2ccc3c(N[C@H]4CCc5ccccc54)ncnc32)C[C@@H]1O	significantly blocked
4. N#Cc1ccc(N[C@H]2CC[C@H](N(C(=O)NCc3ccccc3)c3ccc(N4CCNCC4)cc3)CC2)nc1	reversed

----------
Listed below: Degradation rates of CDK12 at 0.3 μM values for each entry.
- tgt: CDK12 (Homo sapiens, UniProt Q9NYV4)
- Sequence (Q9NYV4 whole entry): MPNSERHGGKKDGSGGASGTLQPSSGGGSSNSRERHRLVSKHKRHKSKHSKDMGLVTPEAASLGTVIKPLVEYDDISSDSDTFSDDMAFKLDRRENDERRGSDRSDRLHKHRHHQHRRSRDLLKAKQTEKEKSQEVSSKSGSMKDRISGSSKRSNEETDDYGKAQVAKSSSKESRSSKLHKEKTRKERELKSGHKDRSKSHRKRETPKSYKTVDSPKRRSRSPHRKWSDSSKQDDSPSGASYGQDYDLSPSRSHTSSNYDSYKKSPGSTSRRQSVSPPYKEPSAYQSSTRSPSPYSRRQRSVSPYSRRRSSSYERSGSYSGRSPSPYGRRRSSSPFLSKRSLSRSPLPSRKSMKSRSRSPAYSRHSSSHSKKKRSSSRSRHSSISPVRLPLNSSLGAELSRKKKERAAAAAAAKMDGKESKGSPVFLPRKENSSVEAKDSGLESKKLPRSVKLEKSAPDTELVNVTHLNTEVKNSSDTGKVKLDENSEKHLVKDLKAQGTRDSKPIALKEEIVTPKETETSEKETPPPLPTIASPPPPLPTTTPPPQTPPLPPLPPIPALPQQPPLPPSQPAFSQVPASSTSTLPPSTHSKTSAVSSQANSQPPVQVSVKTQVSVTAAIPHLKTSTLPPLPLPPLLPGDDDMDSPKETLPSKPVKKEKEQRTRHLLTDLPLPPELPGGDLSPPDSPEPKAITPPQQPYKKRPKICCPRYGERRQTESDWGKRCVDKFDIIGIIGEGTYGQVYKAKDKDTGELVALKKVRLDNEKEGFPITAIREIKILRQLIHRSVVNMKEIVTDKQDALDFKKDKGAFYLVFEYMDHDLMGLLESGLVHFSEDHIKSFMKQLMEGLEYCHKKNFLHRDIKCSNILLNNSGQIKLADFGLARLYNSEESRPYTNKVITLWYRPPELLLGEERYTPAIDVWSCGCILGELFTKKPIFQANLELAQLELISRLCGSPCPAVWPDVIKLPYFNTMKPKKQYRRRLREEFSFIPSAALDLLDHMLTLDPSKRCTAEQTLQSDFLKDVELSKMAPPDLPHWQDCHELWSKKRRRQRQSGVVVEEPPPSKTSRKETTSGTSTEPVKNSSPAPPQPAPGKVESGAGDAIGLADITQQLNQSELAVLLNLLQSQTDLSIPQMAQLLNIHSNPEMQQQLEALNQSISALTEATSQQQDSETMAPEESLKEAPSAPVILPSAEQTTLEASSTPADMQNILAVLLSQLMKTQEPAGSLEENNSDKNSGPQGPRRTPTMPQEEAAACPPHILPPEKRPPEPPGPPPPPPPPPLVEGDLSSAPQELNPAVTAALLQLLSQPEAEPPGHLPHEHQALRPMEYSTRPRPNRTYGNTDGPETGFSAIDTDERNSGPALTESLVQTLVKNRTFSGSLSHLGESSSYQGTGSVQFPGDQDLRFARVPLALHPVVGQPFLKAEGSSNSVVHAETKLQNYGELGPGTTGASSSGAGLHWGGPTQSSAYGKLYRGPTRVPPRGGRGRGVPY
- Sequence (O75909 whole entry partner): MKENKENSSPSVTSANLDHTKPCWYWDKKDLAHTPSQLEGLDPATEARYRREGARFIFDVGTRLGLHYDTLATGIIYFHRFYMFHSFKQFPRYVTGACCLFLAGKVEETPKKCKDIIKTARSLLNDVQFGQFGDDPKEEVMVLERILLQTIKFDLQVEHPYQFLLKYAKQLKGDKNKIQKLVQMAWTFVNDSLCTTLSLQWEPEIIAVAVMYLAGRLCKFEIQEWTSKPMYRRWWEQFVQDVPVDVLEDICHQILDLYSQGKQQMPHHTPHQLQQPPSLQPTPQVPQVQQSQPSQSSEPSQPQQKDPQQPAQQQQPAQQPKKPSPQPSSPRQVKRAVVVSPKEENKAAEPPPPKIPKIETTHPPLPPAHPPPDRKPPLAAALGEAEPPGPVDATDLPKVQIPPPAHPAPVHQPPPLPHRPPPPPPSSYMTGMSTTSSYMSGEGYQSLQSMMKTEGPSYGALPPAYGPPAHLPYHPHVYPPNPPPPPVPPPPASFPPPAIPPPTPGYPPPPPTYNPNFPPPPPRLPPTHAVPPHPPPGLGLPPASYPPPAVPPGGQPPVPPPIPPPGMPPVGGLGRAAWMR
- assay-summary: CDK12 degradation in MDA-MB-231 cells by immunoblotting
- Assay type: cell-based
- Set-up: Immunoblotting of CDK12 and CDK13 in MDA-MB-231 cells treated with increasing concentrations of ZLC491 for 15 h; endogenous in cells; host or cells: MDA-MB-231
- experimental-context: supplementary CSV; 0.3 μM
Form entry: enter the amount, then its unit.

Previously resolved entries follow.
1. N#Cc1ccc(N[C@H]2CC[C@H](N(C(=O)NCc3ccccc3)c3ccc(N4CCN(C(=O)C5CCN(c6ccc7c(c6)C(=O)N(C6CCC(=O)NC6=O)C7=O)CC5)CC4)cc3)CC2)nc1 (stereo partly drawn)	38%
2. N#Cc1ccc(N[C@H]2CC[C@H](N(C(=O)NCc3ccccc3)c3ccc(N4CCN(C5CCN(c6cc7c(cc6F)C(=O)N(C6CCC(=O)NC6=O)C7=O)CC5)CC4)cc3)CC2)nc1 (stereo partly drawn)	85%
3. N#Cc1ccc(N[C@H]2CC[C@H](N(C(=O)NCc3ccccc3)c3ccc(N4CCN(C5CN(c6ccc7c(c6)C(=O)N(C6CCC(=O)NC6=O)C7=O)C5)CC4)cc3)CC2)nc1 (stereo partly drawn)	62%

We now examine a further compound.
Asked: Query: Degradation rates of CDK12 at 0.3 μM; subject: N#Cc1ccc(N[C@H]2CC[C@H](N(C(=O)NCc3ccccc3)c3ccc(N4CCC5(CC4)CCN(c4ccc6c(c4)C(=O)N(C4CCC(=O)NC4=O)C6=O)C5)cc3)CC2)nc1 (stereo partly drawn)
Given back: 27%

----------
- assay-summary: Pharmacokinetics in rats
- Format: in vivo, rat
- experimental-context: male, Sprague-Dawley, rat, plasma, iv, i.v. 2.5 mg/kg
measure-name: AUC(0-t) at 24 h (ng·h/mL)
Record the value in ng·h/mL, omitting the unit from your answer.

Asked: Query: AUC(0-t) at 24 h; subject: N#Cc1ccc(N[C@H]2CC[C@H](N(C(=O)NCc3ccccc3)c3ccc(N4CCN(C5CCN(c6cc7c(cc6F)C(=O)N(C6CCC(=O)NC6=O)C7=O)CC5)CC4)cc3)CC2)nc1 (stereo partly shown)
Given back: 6820

----------
Listed below: Protein Degradation (%DMSO control, 0.3 μM) CDK13 values for each entry.
- tgt: CDK13 (Homo sapiens, UniProt Q14004)
- Construct: Immunoblotting of CDK12 and CDK13 in MDA-MB-231 cells treated with increasing concentrations of ZLC491 for 15 h; endogenous in cells; host or cells: MDA-MB-231
- Sequence (Q14004 whole entry, one chain of several): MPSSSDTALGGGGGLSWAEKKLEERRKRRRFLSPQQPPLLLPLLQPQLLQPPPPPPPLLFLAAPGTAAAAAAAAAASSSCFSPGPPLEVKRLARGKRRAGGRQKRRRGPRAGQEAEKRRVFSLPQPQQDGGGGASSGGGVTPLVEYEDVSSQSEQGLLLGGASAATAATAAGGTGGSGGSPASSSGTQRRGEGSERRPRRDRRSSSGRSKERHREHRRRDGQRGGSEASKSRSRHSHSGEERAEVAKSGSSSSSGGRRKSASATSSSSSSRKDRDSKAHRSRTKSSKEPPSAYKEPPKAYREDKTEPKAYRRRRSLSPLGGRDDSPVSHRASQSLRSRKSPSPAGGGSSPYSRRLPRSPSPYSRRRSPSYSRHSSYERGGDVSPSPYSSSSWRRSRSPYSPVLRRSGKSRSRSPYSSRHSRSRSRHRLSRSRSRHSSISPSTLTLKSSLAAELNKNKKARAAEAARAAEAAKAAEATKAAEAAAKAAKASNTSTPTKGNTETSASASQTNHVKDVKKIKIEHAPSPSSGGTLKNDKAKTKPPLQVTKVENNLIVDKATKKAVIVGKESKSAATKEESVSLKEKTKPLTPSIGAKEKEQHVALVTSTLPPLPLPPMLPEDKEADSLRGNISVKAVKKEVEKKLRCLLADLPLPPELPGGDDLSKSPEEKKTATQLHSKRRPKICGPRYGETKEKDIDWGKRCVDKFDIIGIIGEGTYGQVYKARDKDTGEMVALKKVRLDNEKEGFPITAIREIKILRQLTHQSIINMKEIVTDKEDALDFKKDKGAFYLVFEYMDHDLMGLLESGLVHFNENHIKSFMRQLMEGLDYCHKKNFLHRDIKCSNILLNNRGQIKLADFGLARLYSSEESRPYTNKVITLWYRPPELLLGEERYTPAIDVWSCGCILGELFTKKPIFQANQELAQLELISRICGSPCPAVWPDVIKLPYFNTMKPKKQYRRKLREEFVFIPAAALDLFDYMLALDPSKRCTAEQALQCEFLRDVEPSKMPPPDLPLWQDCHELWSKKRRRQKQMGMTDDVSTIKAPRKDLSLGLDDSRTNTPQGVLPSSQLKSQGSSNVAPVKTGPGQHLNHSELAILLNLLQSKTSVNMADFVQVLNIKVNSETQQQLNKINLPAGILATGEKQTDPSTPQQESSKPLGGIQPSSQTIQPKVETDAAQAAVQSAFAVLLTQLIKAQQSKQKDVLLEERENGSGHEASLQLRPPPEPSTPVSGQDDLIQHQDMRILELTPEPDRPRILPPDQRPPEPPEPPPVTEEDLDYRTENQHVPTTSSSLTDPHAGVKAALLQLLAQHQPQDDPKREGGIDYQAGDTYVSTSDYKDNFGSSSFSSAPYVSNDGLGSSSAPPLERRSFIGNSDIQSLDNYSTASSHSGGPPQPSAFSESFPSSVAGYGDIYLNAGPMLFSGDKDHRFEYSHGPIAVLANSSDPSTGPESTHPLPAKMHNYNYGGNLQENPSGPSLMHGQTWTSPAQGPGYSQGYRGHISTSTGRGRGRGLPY
- assay-summary: CDK13 degradation in MDA-MB-231 cells by immunoblotting;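 for Protein Degradation (%DMSO control, 0.3 μM) CDK13: percent of CDK13 protein degraded relative to DMSO control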
- Type: cell-based
- experimental-context: MDA-MB-231 cells, 0.3 μM, 15 h, immunoblotting, normalized against α-tubulin
Record the value in %, omitting the unit from your answer.

Previously resolved entries follow.
1) N#Cc1ccc(N[C@H]2CC[C@H](N(C(=O)NCc3ccccc3)c3ccc(N4CCN(CC5CCN(c6cc7c(cc6F)C(=O)N(C6CCC(=O)NC6=O)C7=O)CC5)CC4)cc3)CC2)nc1 (stereo partly drawn) [4g-F]	57
2) N#Cc1ccc(N[C@H]2CC[C@H](N(C(=O)NCc3ccccc3)c3ccc(N4CCN(C(=O)C5CCN(c6ccc7c(c6)C(=O)N(C6CCC(=O)NC6=O)C7=O)CC5)CC4)cc3)CC2)nc1 (stereo partly drawn) [4c]	51

We now examine a further compound.
Asked: Query: Protein Degradation (%DMSO control, 0.3 μM) CDK13; subject: N#Cc1ccc(N[C@H]2CC[C@H](N(C(=O)NCc3ccccc3)c3ccc(N4CCC5(CC4)CN(c4ccc6c(c4)C(=O)N(C4CCC(=O)NC4=O)C6=O)C5)cc3)CC2)nc1 (stereo partly drawn) [4n]
Given back: 85

----------
- Test system: MDA-MB-231 cells
- assay-summary: Drug combination assay with ZLC491
- Type: cell-based, human
- experimental-context: Homo sapiens, 120 h; drug A alone, starting concentration 25 μM, MDA-MB-231, 5 days; read-out: IC50 (μM), Drug A: ZLC491 25μM: 0μM
measure-name: IC50 (µM)
Record the value in µM, omitting the unit from your answer.

Asked: Query: IC50; subject: O=C(c1cc(Cc2n[nH]c(=O)c3ccccc23)ccc1F)N1CCN(C(=O)C2CC2)CC1
Given back: 7.24

----------
- tgt: CDK13 (Homo sapiens, UniProt Q14004)
- Construct: Immunoblotting of CDK12 and CDK13 in MDA-MB-231 cells treated with increasing concentrations of ZLC491 for 15 h; endogenous in cells; host or cells: MDA-MB-231
- assay-summary: CDK13 degradation in MDA-MB-231 cells by immunoblotting
- Format: cell-based
- experimental-context: supplementary CSV; 0.3 μM
Listed below: Degradation rates of CDK13 at 0.3 μM values for each entry.
Form entry: enter the amount, then its unit.

Previously resolved entries follow.
1) N#Cc1ccc(N[C@H]2CC[C@H](N(C(=O)NCc3ccccc3)c3ccc(N4CCN(C5CN(c6ccc7c(c6)C(=O)N(C6CCC(=O)NC6=O)C7=O)C5)CC4)cc3)CC2)nc1 (stereo partly shown) [4k]	76%
2) N#Cc1ccc(N[C@H]2CC[C@H](N(C(=O)NCc3ccccc3)c3ccc(N4CCN(C5CCN(c6ccc7c(c6)C(=O)N(C6CCC(=O)NC6=O)C7=O)CC5)CC4)cc3)CC2)nc1 (stereo partly shown) [4m]	85%
3) N#Cc1ccc(N[C@H]2CC[C@H](N(C(=O)NCc3ccccc3)c3ccc(N4CCN(C[C@H]5CCN(c6ccc7c(c6)C(=O)N(C6CCC(=O)NC6=O)C7=O)C5)CC4)cc3)CC2)nc1 (stereo partly shown) [4f]	64%
4) N#Cc1ccc(N[C@H]2CC[C@H](N(C(=O)NCc3ccccc3)c3ccc(N4CCN(CC5CCN(c6cc7c(cc6F)C(=O)N(C6CCC(=O)NC6=O)C7=O)CC5)CC4)cc3)CC2)nc1 (stereo partly shown) [4g-F]	57%
5) N#Cc1ccc(N[C@H]2CC[C@H](N(C(=O)NCc3ccccc3)c3ccc(N4CC(CN5CCN(c6ccc7c(c6)C(=O)N(C6CCC(=O)NC6=O)C7=O)CC5)C4)cc3)CC2)nc1 (stereo partly shown) [4h]	61%
6) N#Cc1ccc(N[C@H]2CC[C@H](N(C(=O)NCc3ccccc3)c3ccc(N4CCN(C(=O)C5CCN(c6ccc7c(c6)C(=O)N(C6CCC(=O)NC6=O)C7=O)C5)CC4)cc3)CC2)nc1 (stereo partly shown) [4b]	65%
7) N#Cc1ccc(N[C@H]2CC[C@H](N(C(=O)NCc3ccccc3)c3ccc(N4CCC5(CC4)CCN(c4ccc6c(c4)C(=O)N(C4CCC(=O)NC4=O)C6=O)C5)cc3)CC2)nc1 (stereo partly shown) [4o]	47%
8) N#Cc1ccc(N[C@H]2CC[C@H](N(C(=O)NCc3ccccc3)c3ccc(N4CCN(C(=O)C5CN(c6ccc7c(c6)C(=O)N(C6CCC(=O)NC6=O)C7=O)C5)CC4)cc3)CC2)nc1 (stereo partly shown) [4a]	38%

Asked: Query: Degradation rates of CDK13 at 0.3 μM; subject: N#Cc1ccc(N[C@H]2CC[C@H](N(C(=O)NCc3ccccc3)c3ccc(N4CCN(C5CCN(c6ccc7c(c6)C(=O)N(C6CCC(=O)NC6=O)C7=O)C5)CC4)cc3)CC2)nc1 (stereo partly shown) [4l]
Given back: 40%

Asked: Query: Degradation rates of CDK13 at 0.3 μM; subject: N#Cc1ccc(N[C@H]2CC[C@H](N(C(=O)NCc3ccccc3)c3ccc(N4CCC5(CC4)CCN(c4ccc6c(c4)C(=O)N(C4CCC(=O)NC4=O)C6=O)CC5)cc3)CC2)nc1 (stereo partly shown) [4p]
Given back: 66%

Asked: Query: Degradation rates of CDK13 at 0.3 μM; subject: N#Cc1ccc(N[C@H]2CC[C@H](N(C(=O)NCc3ccccc3)c3ccc(N4CCN(C[C@@H]5CCN(c6ccc7c(c6)C(=O)N(C6CCC(=O)NC6=O)C7=O)C5)CC4)cc3)CC2)nc1 (stereo partly shown) [4e]
Given back: 70%

Asked: Query: Degradation rates of CDK13 at 0.3 μM; subject: N#Cc1ccc(N[C@H]2CC[C@H](N(C(=O)NCc3ccccc3)c3ccc(N4CCN(CC5CCN(c6ccc7c(c6)C(=O)N(C6CCC(=O)NC6=O)C7=O)CC5)CC4)cc3)CC2)nc1 (stereo partly shown) [4g]
Given back: 84%

Asked: Query: Degradation rates of CDK13 at 0.3 μM; subject: N#Cc1ccc(N[C@H]2CC[C@H](N(C(=O)NCc3ccccc3)c3ccc(N4CCN(C5CCN(c6cc7c(cc6F)C(=O)N(C6CCC(=O)NC6=O)C7=O)CC5)CC4)cc3)CC2)nc1 (stereo partly shown) [ZLC491]
Given back: 90%
